- test_summary: Pharmacokinetic studies, oral and intravenous dosing
- Assay type: in vivo, CD1 mice
- assay_conditions: mouse, in vivo; CD1 mice; 10 mg/kg; Oral
- Description: Next, we conducted pharmacokinetic (PK) studies with 51-106. Briefly, mice were dosed either intravenously (IV) or orally with 10 mg/kg of 51-106 and sampled at 0.083, 0.25, 0.5, 1, 2, 4, 8, and 24 h. […] Pharmacokinetic studies (10 mg/kg oral and intravenous dosing) were performed following previously reported methods. […] The pharmacokinetic parameters were determined using non-compartmental analyses module of WinNonlin 1.5.
property_label: AUC(0-t) (ng·h/mL)
Numbers only, in ng·h/mL.

Query: Please list AUC(0-t) recorded for the molecule Cn1cc(-c2cnc3ccc(NC(=O)Nc4ccc(F)c(C(F)(F)F)c4)cc3n2)cn1 [51-106]
Reply: 4580
